- procedure.details: Cytotoxicity against human MT4 cells assessed as reduction in cell viability by MTT assay
- Format: toxicity, cell-based
quantity.measured: CC50

Please give CC50 for each item listed below.
1. C#CC(CO)(Cn1ccc(=O)[nH]c1=O)OCP(=O)(O)O (racemic)
2. CC(CO)(Cn1ccc(=O)[nH]c1=O)OCP(=O)(O)O (racemic)
3. C#CC(CO)(Cn1cnc2c(=O)[nH]c(N)nc21)OCP(=O)(O)O (stereo unspecified)

Reply:
1. > 411 µM
2. > 425 µM
3. > 364 µM

// each listed compound needs a value for CC50
1. Nc1ccn([C@@H]2CS[C@H](CO)O2)c(=O)n1
2. CC(CO)(Cn1ccc(N)nc1=O)OCP(=O)(O)O (racemic)
3. C#CC(CO)(Cn1cc(C)c(=O)[nH]c1=O)OCP(=O)(O)O (racemic)
4. CC(CO)(Cn1cnc2c(=O)[nH]c(N)nc21)OCP(=O)(O)O (racemic)
5. C#CC(CO)(Cn1cnc2c(N)ncnc21)OCP(=O)(O)O (racemic)
6. C#CC(CO)(Cn1ccc(N)nc1=O)OCP(=O)(O)O (racemic)
7. CC(CO)(Cn1cnc2c(N)ncnc21)OCP(=O)(O)O (racemic)
8. Cc1cn(CC(C)(CO)OCP(=O)(O)O)c(=O)[nH]c1=O (racemic)

Reply:
["> 87.2 µM", "> 426 µM", "> 393 µM", "228 µM", "> 382 µM", "> 412 µM", "> 352 µM", "> 406 µM"]
